Data credit: patent US8470861B2

Tested on: isolated rat liver mitochondria (mitochondrial β-oxidation)
Experiment: Mitochondrial biotransformation of alkanoic-acid-based prodrugs
Conditions: isolated rat liver mitochondria
readoutName: biotransformation / substrate quality for β-oxidation (in words)

compound="Cc1cccc(C)c1OCCCCC(=O)O [Compound 26c, 5-(2,6-Dimethylphenoxy)pentanoic acid]" assayvalue="poor substrates"
compound="Cc1cccc(C)c1OCCC(=O)O [Compound 25c, 3-(2,6-Dimethylphenoxy)propanoic acid]" assayvalue="poor substrates"
